Every entry's value here was drawn from paper PMC9231160.

- methodNotes: ABTS radical scavenging assay
- runParameters: mean ± SD (n = 3)
- Experimental: All samples were measured in triplicate. […] Differences of means between groups were analyzed by one-way analysis of variance (ANOVA) on statistical package SPSS 13.0. The differences between groups were believed to be significant when p < 0.05. […] S1.4. DPPH radical scavenging assay […] S1.5. ABTS radical scavenging assay The ABTS radical scavenging assay was used also to evaluate the antioxidant The ABTS free radical cation (ABTS•+ ) was […]
pIC50: −log10 of the molar value.
Decide by pIC50: equal to or exceeding 5 means 1, less means -1.

C=CC(C)(CCC=C(C)C)O[C@@H]1O[C@H](CO)[C@@H](OC(=O)/C=C/c2ccc(O)c(O)c2)[C@H](O[C@@H]2O[C@@H](C)[C@H](O)[C@@H](O)[C@H]2O)[C@H]1O (mixture of isomers) [Compound 1]; 1
COC(C)(C)C=CCC(C)=CCOC1OC(COC(=O)C=Cc2ccc(O)cc2)C(O)C(OC2OC(C)C(O)C(O)C2O)C1O (centres unmarked) [Compound 8]; -1
CC(C)=CCC/C(C)=C/CO[C@@H]1O[C@H](CO)[C@@H](OC(=O)/C=C/c2ccc(O)cc2)[C@H](O[C@@H]2O[C@@H](C)[C@H](O)[C@@H](O)[C@H]2O)[C@H]1O [Compound 10, ligurobustoside C]; -1
C=C(C)C(O)CCC(C)=CCOC1OC(CO)C(OC(=O)C=Cc2ccc(O)cc2)C(OC2OC(C)C(O)C(O)C2O)C1O (centres unmarked) [Compound 9]; -1

---

- Test system: α-amylase
- methodNotes: α-amylase inhibitory activity
- Type: biochemical
- runParameters: at 0.1 mM; mean ± SD (n = 3); NA = no activity
readoutKind: α-Amylase Inhibition at 0.1 mM

C=CC(C)(CCC=C(C)C)O[C@@H]1O[C@H](CO)[C@@H](OC(=O)/C=C/c2ccc(O)cc2)[C@H](O[C@@H]2O[C@@H](C)[C@H](O[C@@H]3O[C@@H](C)[C@H](O)[C@@H](O)[C@H]3O)[C@@H](O)[C@H]2O)[C@H]1O (some centres unmarked); 26.1 ± 3.0 b %
CC(=CCOC1OC(CO)C(OC(=O)C=Cc2ccc(O)cc2)C(OC2OC(C)C(O)C(O)C2O)C1O)CCC(O)C(C)(C)O (centres unmarked); 31.3 ± 1.3 b %
C=CC(C)(CCC=C(C)C)O[C@@H]1O[C@H](COC(=O)/C=C/c2ccc(O)cc2)[C@@H](O)[C@H](O[C@@H]2O[C@@H](C)[C@H](O)[C@@H](O)[C@H]2O)[C@H]1O (mixture of isomers); 31.5 ± 0.5 b %
C=CC(C)(CCC(O)C(=C)C)O[C@@H]1O[C@H](COC(=O)/C=C/c2ccc(O)cc2)[C@@H](O)[C@H](O[C@@H]2O[C@@H](C)[C@H](O)[C@@H](O)[C@H]2O)[C@H]1O (some centres unmarked); 32.5 ± 6.3 b %
C=CC(C)(CCC(O)C(C)(C)O)OC1OC(COC(=O)C=Cc2ccc(O)cc2)C(O)C(OC2OC(C)C(O)C(O)C2O)C1O (centres unmarked); 28.2 ± 3.9 b %
C=C(C)C(O)CCC(C)=CCOC1OC(CO)C(OC(=O)C=Cc2ccc(O)cc2)C(OC2OC(C)C(O)C(O)C2O)C1O (centres unmarked); 29.2 ± 8.4 b %
COC(C)(C)C=CCC(C)=CCOC1OC(COC(=O)C=Cc2ccc(O)cc2)C(O)C(OC2OC(C)C(O)C(O)C2O)C1O (centres unmarked); 31.4 ± 1.9 b %
C=CC(C)(C/C=C/C(C)(C)OC)O[C@@H]1O[C@H](COC(=O)/C=C/c2ccc(O)cc2)[C@@H](O)[C@H](O[C@@H]2O[C@@H](C)[C@H](O)[C@@H](O)[C@H]2O)[C@H]1O (some centres unmarked); 35.6 ± 2.0 b %

---

- Tested on: α-Glucosidase from yeast
- methodNotes: α-glucosidase inhibitory activity
- Type: biochemical
- runParameters: at 0.1 mM; mean ± SD (n = 3); NA = no activity
readoutKind: α-Glucosidase Inhibition at 0.1 mM

C=CC(C)(C/C=C/C(C)(C)OC)O[C@@H]1O[C@H](COC(=O)/C=C/c2ccc(O)cc2)[C@@H](O)[C@H](O[C@@H]2O[C@@H](C)[C@H](O)[C@@H](O)[C@H]2O)[C@H]1O (stereo partly shown) [Compound 5]; 13.8 ± 2.0 d %
COC(C)(C)C=CCC(C)=CCOC1OC(COC(=O)C=Cc2ccc(O)cc2)C(O)C(OC2OC(C)C(O)C(O)C2O)C1O (stereo not shown) [Compound 8]; 24.7 ± 3.5 c %
C=CC(C)(CCC(O)C(=C)C)O[C@@H]1O[C@H](COC(=O)/C=C/c2ccc(O)cc2)[C@@H](O)[C@H](O[C@@H]2O[C@@H](C)[C@H](O)[C@@H](O)[C@H]2O)[C@H]1O (stereo partly shown) [Compound 3]; 27.3 ± 0.3 c %
CC(C)=CCC/C(C)=C/CO[C@@H]1O[C@H](CO)[C@@H](OC(=O)/C=C/c2ccc(O)cc2)[C@H](O[C@@H]2O[C@@H](C)[C@H](O)[C@@H](O)[C@H]2O)[C@H]1O [Compound 10, ligurobustoside C]; 28.7 ± 2.1 c %
C=CC(C)(CCC=C(C)C)O[C@@H]1O[C@H](COC(=O)/C=C/c2ccc(O)cc2)[C@@H](O)[C@H](O[C@@H]2O[C@@H](C)[C@H](O)[C@@H](O)[C@H]2O)[C@H]1O (mixture of isomers) [Compound 2]; 48.1 ± 4.3 b %
C=CC(C)(CCC=C(C)C)O[C@@H]1O[C@H](CO)[C@@H](OC(=O)/C=C/c2ccc(O)cc2)[C@H](O[C@@H]2O[C@@H](C)[C@H](O[C@@H]3O[C@@H](C)[C@H](O)[C@@H](O)[C@H]3O)[C@@H](O)[C@H]2O)[C@H]1O (stereo partly shown) [Compound 6]; 12.0 ± 1.7 d %
C=C(C)C(O)CCC(C)=CCOC1OC(CO)C(OC(=O)C=Cc2ccc(O)cc2)C(OC2OC(C)C(O)C(O)C2O)C1O (stereo not shown) [Compound 9]; 12.4 ± 5.6 d %

---

- targetUnderTest: fatty acid synthase (FAS) (Gallus gallus, UniProt P12276)
- Construct: isolated from chicken liver and kept in ice-bath
- Sequence (P12276 whole entry): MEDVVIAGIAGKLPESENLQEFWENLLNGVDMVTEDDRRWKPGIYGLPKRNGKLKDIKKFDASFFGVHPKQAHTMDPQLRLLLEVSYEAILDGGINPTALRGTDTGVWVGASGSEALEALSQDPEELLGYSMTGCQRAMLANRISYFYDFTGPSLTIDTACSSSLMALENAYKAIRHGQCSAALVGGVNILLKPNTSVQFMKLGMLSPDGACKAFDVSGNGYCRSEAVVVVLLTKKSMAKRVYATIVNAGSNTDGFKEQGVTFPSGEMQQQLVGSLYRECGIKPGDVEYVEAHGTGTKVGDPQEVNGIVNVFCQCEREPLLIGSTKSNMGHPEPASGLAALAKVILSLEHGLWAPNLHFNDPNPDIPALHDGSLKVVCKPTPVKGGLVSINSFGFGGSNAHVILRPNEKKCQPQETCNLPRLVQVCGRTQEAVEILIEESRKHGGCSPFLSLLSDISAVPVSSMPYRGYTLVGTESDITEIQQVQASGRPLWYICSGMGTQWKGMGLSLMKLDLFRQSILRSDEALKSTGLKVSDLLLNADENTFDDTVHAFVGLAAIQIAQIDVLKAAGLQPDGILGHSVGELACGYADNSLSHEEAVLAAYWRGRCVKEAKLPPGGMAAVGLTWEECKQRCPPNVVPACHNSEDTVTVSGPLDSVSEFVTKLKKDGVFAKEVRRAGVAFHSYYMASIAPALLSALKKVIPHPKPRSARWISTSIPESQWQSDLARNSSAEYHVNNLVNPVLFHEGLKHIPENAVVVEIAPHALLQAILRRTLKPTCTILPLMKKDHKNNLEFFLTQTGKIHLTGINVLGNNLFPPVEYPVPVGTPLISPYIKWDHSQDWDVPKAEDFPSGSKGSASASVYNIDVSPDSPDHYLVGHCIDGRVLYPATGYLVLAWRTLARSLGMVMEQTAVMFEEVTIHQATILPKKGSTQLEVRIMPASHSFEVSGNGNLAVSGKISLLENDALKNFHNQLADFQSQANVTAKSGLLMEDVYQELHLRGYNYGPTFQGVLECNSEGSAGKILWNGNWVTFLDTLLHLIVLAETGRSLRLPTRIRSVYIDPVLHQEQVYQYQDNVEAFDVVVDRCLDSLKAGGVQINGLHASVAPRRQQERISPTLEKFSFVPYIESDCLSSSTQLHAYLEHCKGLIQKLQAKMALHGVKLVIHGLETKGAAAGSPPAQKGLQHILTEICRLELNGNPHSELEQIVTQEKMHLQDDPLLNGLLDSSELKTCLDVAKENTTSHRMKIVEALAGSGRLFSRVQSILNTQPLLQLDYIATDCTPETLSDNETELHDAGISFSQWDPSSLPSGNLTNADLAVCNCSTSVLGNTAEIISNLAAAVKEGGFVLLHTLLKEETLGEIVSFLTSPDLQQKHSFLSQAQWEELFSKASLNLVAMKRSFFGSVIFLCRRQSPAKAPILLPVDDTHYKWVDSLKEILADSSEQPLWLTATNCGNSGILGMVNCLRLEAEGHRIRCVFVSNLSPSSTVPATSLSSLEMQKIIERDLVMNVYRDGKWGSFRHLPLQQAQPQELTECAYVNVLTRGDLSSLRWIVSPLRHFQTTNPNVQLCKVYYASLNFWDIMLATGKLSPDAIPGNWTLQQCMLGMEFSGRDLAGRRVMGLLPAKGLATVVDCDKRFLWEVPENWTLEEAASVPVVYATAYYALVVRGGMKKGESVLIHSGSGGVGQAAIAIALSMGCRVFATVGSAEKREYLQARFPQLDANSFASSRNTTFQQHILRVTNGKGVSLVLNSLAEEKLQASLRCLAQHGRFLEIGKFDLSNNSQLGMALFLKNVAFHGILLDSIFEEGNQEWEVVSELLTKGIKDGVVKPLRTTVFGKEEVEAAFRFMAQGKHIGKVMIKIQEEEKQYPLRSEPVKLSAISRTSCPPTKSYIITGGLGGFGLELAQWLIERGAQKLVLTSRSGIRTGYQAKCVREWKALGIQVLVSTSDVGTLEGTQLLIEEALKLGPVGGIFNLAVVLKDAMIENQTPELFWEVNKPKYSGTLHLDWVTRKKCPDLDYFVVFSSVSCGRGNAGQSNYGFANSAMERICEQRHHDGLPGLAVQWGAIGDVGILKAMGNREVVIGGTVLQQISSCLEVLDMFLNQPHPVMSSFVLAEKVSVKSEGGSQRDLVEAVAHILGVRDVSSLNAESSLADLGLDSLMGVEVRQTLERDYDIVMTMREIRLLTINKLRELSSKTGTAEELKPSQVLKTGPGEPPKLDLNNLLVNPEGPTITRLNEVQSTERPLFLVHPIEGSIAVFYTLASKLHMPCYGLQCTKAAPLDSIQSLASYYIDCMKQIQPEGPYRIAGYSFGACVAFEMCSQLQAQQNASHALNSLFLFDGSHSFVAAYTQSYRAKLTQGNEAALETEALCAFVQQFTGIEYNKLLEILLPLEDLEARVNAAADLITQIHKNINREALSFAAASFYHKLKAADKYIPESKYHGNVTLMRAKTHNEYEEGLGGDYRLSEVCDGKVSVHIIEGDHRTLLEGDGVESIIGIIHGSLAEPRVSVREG
- methodNotes: FAS inhibitory activity
- runParameters: FAS isolated from chicken liver; mean ± SD (n = 3); NA = no activity
Consider the cut-off 20 µM. If the recorded IC50 is strictly smaller, the label is met; if not, the label is not met.

CC(C)=CCC/C(C)=C/CO[C@@H]1O[C@H](CO)[C@@H](OC(=O)/C=C/c2ccc(O)cc2)[C@H](O[C@@H]2O[C@@H](C)[C@H](O)[C@@H](O)[C@H]2O)[C@H]1O [Compound 10, ligurobustoside C]; met
COC(C)(C)C=CCC(C)=CCOC1OC(COC(=O)C=Cc2ccc(O)cc2)C(O)C(OC2OC(C)C(O)C(O)C2O)C1O (stereo not drawn) [Compound 8]; not met
C=C(C)C(O)CCC(C)=CCOC1OC(CO)C(OC(=O)C=Cc2ccc(O)cc2)C(OC2OC(C)C(O)C(O)C2O)C1O (stereo not drawn) [Compound 9]; not met
CC(=CCOC1OC(CO)C(OC(=O)C=Cc2ccc(O)cc2)C(OC2OC(C)C(O)C(O)C2O)C1O)CCC(O)C(C)(C)O (stereo not drawn) [Compound 11]; not met
C=CC(C)(CCC(O)C(=C)C)O[C@@H]1O[C@H](COC(=O)/C=C/c2ccc(O)cc2)[C@@H](O)[C@H](O[C@@H]2O[C@@H](C)[C@H](O)[C@@H](O)[C@H]2O)[C@H]1O (stereo partly drawn) [Compound 3]; not met
C=CC(C)(C/C=C/C(C)(C)OC)O[C@@H]1O[C@H](COC(=O)/C=C/c2ccc(O)cc2)[C@@H](O)[C@H](O[C@@H]2O[C@@H](C)[C@H](O)[C@@H](O)[C@H]2O)[C@H]1O (stereo partly drawn) [Compound 5]; not met

---

- methodNotes: ABTS radical scavenging assay
- runParameters: mean ± SD (n = 3)
pIC50: −log10 of the molar value.
readoutKind: pIC50

C=CC(C)(CCC(O)C(C)(C)O)OC1OC(COC(=O)C=Cc2ccc(O)cc2)C(O)C(OC2OC(C)C(O)C(O)C2O)C1O (stereo not drawn); 5.02
C=CC(C)(C/C=C/C(C)(C)OC)O[C@@H]1O[C@H](COC(=O)/C=C/c2ccc(O)cc2)[C@@H](O)[C@H](O[C@@H]2O[C@@H](C)[C@H](O)[C@@H](O)[C@H]2O)[C@H]1O (stereo partly drawn); 5.16
C=CC(C)(CCC=C(C)C)O[C@@H]1O[C@H](CO)[C@@H](OC(=O)/C=C\c2ccc(O)cc2)[C@H](O[C@@H]2O[C@@H](C)[C@H](O[C@@H]3O[C@@H](C)[C@H](O)[C@@H](O)[C@H]3O)[C@@H](O)[C@H]2O)[C@H]1O (stereo partly drawn); 4.69
CC(=CCOC1OC(CO)C(OC(=O)C=Cc2ccc(O)cc2)C(OC2OC(C)C(O)C(O)C2O)C1O)CCC(O)C(C)(C)O (stereo not drawn); 5.10
C=CC(C)(CCC=C(C)C)O[C@@H]1O[C@H](CO)[C@@H](OC(=O)/C=C/c2ccc(O)cc2)[C@H](O[C@@H]2O[C@@H](C)[C@H](O[C@@H]3O[C@@H](C)[C@H](O)[C@@H](O)[C@H]3O)[C@@H](O)[C@H]2O)[C@H]1O (stereo partly drawn); 4.95
C=CC(C)(CCC(O)C(=C)C)O[C@@H]1O[C@H](COC(=O)/C=C/c2ccc(O)cc2)[C@@H](O)[C@H](O[C@@H]2O[C@@H](C)[C@H](O)[C@@H](O)[C@H]2O)[C@H]1O (stereo partly drawn); 4.80
